Reference for the values: paper PMC8523698

TESTED TARGET: OATP1B1 (Homo sapiens)
Sequence (Q9Y6L6 whole entry): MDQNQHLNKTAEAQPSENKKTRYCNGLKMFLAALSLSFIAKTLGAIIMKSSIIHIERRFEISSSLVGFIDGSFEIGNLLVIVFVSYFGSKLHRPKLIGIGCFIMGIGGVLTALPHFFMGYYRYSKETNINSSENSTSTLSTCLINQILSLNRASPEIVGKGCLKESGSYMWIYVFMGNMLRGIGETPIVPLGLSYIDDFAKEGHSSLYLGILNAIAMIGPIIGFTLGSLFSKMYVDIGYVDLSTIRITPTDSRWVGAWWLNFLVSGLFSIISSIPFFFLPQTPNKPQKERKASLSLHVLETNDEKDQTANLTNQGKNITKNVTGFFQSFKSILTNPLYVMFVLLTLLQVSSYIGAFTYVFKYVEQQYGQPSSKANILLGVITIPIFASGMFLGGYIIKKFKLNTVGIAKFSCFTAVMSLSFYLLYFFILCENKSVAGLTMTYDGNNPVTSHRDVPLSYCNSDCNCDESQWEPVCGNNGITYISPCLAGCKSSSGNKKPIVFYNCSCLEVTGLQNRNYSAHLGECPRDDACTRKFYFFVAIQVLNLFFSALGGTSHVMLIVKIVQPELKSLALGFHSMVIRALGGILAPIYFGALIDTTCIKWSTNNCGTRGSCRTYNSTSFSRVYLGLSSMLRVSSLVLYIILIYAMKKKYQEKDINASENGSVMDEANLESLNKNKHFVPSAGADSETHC
ASSAY METHOD TEXT: Transporter inhibition using transfected HEK293 cells
MEASURED PARAMETER: IC50
Answer format: number, then unit.

Prompt line: Field request: IC50 | item: COc1cccc2[nH]c(C(=O)N[C@@H](CC(C)C)C(=O)N[C@@H](C[C@@H]3CCNC3=O)C(=O)CO)cc12
Response line: 30.1 µM

----------
TESTED TARGET: MATE1 (Homo sapiens, UniProt Q96FL8)
Sequence (Q96FL8 whole entry): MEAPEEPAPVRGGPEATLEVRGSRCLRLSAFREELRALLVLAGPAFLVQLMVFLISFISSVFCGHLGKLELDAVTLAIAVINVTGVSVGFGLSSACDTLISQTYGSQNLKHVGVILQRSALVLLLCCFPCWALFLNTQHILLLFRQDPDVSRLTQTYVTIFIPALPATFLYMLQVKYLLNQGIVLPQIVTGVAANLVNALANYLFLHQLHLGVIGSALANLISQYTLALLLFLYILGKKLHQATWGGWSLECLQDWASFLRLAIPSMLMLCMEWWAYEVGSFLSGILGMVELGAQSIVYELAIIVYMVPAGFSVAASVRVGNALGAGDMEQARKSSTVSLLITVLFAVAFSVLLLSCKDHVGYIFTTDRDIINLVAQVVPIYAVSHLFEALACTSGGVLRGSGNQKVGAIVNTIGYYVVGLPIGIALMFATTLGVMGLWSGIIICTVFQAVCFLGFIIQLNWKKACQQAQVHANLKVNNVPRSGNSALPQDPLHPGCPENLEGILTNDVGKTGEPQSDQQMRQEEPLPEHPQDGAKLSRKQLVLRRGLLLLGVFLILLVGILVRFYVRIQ
ASSAY METHOD TEXT: Transporter inhibition using transfected HEK293 cells
CONDITIONS USED: human, pH 7.4, IC50, [14C]Metformin (20 µM)
pIC50: −log10 of the molar value.
MEASURED PARAMETER: pIC50

Prompt line: Quick check: pIC50 on MATE1 (Homo sapiens, UniProt Q96FL8), item COc1cccc2[nH]c(C(=O)N[C@@H](CC(C)C)C(=O)N[C@@H](C[C@@H]3CCNC3=O)C(=O)CO)cc12 [PF-00835231] ?
Response line: < 4.70
